Target: T1, NPNA4 peptide (Plasmodium falciparum (isolate 3D7)., not fully specified)
T1 construct: source: synthetic peptide (InnoPep Inc, purity >=97%)
T1 chain: NPNANPNANPNANPNA
Assay: BLI
Details: both partners purified
pKd: −log10 of the molar value. Ends that are not written are not given here.
# label = label 1 if pKd >= 7 else label 0

Field: example entries. Status: answers known.
Binder	Class label
364 Fab (Fab, V domains shown, source: ExpiCHO cells, purified (mAb Select PrismA or Capture Select, SEC)) VH: QVQLVESGGGVVQPGGSLRLSCAASGFTFSGYGMHWVRQVPGKGLEWVAIIWFDGSQKYYADSVQGRFTISRDNSKKTLFLRMNSLRAEDTAVYYCAKVHDDEPTQDYWGQGTLVTVSS VL: DIQMTQSPSTLSASVGDRVTITCRASQGISTSLAWYQQKPGKAPKLLIYKASSLESGVPSRFSGSGSGTEFTLTITSLQPEDFATYYCQQYKRYWTFGQGTKVEIK	label 0
239 Fab (Fab, V domains shown, source: ExpiCHO cells, purified (mAb Select PrismA or Capture Select, SEC)) VH: QVQLVESGGGVVQPGRSLRLSCAASRLTFRNFGMHWVRQTPGKGLEWVAVIWHDGSNKFYADSVEGRFTISRDNSKNTLYLQMNSLRDEDTAIYYCAKDWGGASDRVFDYWGRGTLVIVSS VL: DIQMTQSPSTLSASVGDRVTITCRASQSVSTSLAWYQQKPGKAPNLLIYQASTLYRGVPSRFSGSGSGTEFTLTIGSLQPDDFATYYCQHYNSYSRITFGQGTRLEIK	label 1
311 Fab (Fab, V domains shown, source: ExpiCHO cells, purified (mAb Select PrismA or Capture Select, SEC)) VH: QVQLVESGGGVVPPGRSLRLSCATSGFTFSNYGMHWVRQAPGKGLEWVAIIWYDGSRNFYAASVEGRFTISRDNSKNTLYLQMNSLRVEDTAVYYCARAAYYDTSGYGDYWGQGTLVTVSS VL: QSVLTQPPSVSGAPGQTVTISCTGGSSNIGAGYDVHWYQQLPGTAPKLLIYGNINRPSGVPDRFSGSKSGTSASLAITGLQAEDEADYYCQSYDRRLSGSWVFGGGTKLTVL	label 0
337 Fab (Fab, V domains shown, source: ExpiCHO cells, purified (mAb Select PrismA or Capture Select, SEC)) VH: QVQLVESGGGVVQPGRSLRLSCAASGFSFSTYGMHWVRQAPGKGLEWVALIWHDGSKKFYSESVRGRFTISRDNSMDTLYLQMSSLRAEDTAVYYCARDGADYFDSTGGAFDIWGQGTMVIVSS VL: EIVMTQSPATLSVSPGERATLSCRASQSVSSNLAWYQQKPGQAPRLLIYGASTRATGIPARFSGSGSGTEFTLTISSLQSEDFATYYCQQYKTWWTFGQGTKVEIK	label 1
227 Fab (Fab, V domains shown, source: ExpiCHO cells, purified (mAb Select PrismA or Capture Select, SEC)) VH: QVQLVQSGGGVVQPGRSLRLSCVTSGFTFPAFGMHWVRQAPGKGLEWVAVIWYDGSKKYYADSVRGRFTISRDNSRNTLYLQMHSLRAEDTAVYYCARVKNYESSGYSQCLDYWGQGVLVTVAS VL: QSVLTQPPSVSGAPGQRVTISCTGSSSNIGAGYDVHWYQQLPGTAPKLLIYGNGNRPSGVPDRFSGSKSGTSVSLAITGLQAEDEADYYCQSYDSSLSAFVFGTGTKVTVL	label 1

Proceed to the following item.
Identify whether the reported pKd of the following binder is 7 or greater: 334 Fab (Fab, V domains shown, source: ExpiCHO cells, purified (mAb Select PrismA or Capture Select, SEC)) VH: QVQLVESGGGVVQPGRSLTLSCAASGFTFSNYGMHWVRQTPGKGLAWVAIIWYDGSKTYYEDSVKGRFTISRDNSKNTLYLQMNSLRVDDTAVYYCARVRHSSSRHGSAFDLWGQGTLVTVSS VL: VIQMTQSPSTLSASVGDRVTITCRASQSVSTWLAWYQQKPGQGPKLLIYEASSLESGVPSRFSGSGSGTEFTLTISSLQPDDFATYYCQQYNSYSFWTFGQGTKVEIK
label 1

Hey, just so you know, these numbers are from paper PMC10382551.
